Collected viability, percent of control values appear next to each entry.
assay_explanation: Cell Proliferation Assay against the HBL1 Cell Line (AID 651646);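 note: cells exposed to compound for 48 h before reading; 100% = DMSO and 0% = 9.2 µM bortezomib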
assay_context: HBL1 DLBCL cells; at 46.1 µM (top of the series) unless noted
Answer shape: numeric part, then the unit.

Use these answered entries as a reference point.
compound=NC(CO)(CO)CCc1ccc(Sc2cccc(OCc3ccccc3)c2)cc1Cl endpoint_label="viability, percent of control" readout_value=1.28%
compound=CN(C)Cc1ccc(-c2nc3cccc4c3n2CCNC4=O)cc1 endpoint_label="viability, percent of control" readout_value=60.9%

Q. Can you look up the measured viability, percent of control of Cc1nc(N)sc1-c1ccnc(Nc2ccc(N3CCOCC3)cc2)n1 for me?
A. 24.4%

Q. Can you look up the measured viability, percent of control of O=c1cc(CN2CCOCC2)occ1OCCCCCSc1ccnc2cc(C(F)(F)F)ccc12 for me?
A. 20.4%

###

assay_explanation: Drug repurposing screens with cells derived from glioblastoma tumor samples (AID 1345199); note: % is set by controls: 0 for no effect and ±100 for the full control effect; nearly all actives have a fitted effect of over 40% in size
assay_context: GBM patient neurospheres viability, ATP luminescence, 48 h; at 45.9 µM (top of the series); tumour line B
Inconclusive results are not listed.
endpoint_label: activity, negative = cell killing (%)
Give just the number in %; leave the unit off.

compound=CC(C)OC(=O)C(C)(C)Oc1ccc(C(=O)c2ccc(Cl)cc2)cc1 readout_value=-21.9

Q. Can you look up the measured activity, negative = cell killing of C[N+](C)(C)CCCCCC[N+](C)(C)C for me?
A. -9.48

Q. Can you look up the measured activity, negative = cell killing of C[C@@H](O)[C@H]1C(=O)N2C(C(=O)O)=C(S[C@@H]3CN[C@H](C(=O)N(C)C)C3)[C@H](C)[C@H]12 for me?
A. -4.52

Q. Can you look up the measured activity, negative = cell killing of CCN1CCC[C@H]1CNC(=O)c1cc(S(N)(=O)=O)ccc1OC for me?
A. 0.712

Q. Can you look up the measured activity, negative = cell killing of CN1[C@@H]2CCC[C@@H]1CC(NC(=O)c1nn(C)c3ccccc13)C2 (some centres undefined) for me?
A. 0.357

###

assay_explanation: Quantitative High-Throughput drug screen in 47 multiple myeloma cell lines against the NCATS MIPE library collection: JIM3_ECACC cell viability assay (AID 1918963; note: nearly all actives have a fitted effect of over 35% in size)
assay_context: JIM3 myeloma viability, CellTiter-Glo ATP, 48 h; series mostly up to 45.8 µM
Records with an inconclusive call do not appear. Activity calls are given as the source filed them. Calls come from the whole dose curve; as a rule, active = well fitted cell-killing curve with a large enough effect; inconclusive = small, poorly fitted or top-dose-only effect; inactive = no such curve, though single readings can be large or run the other way.
Select the matching outcome among Y = active, N = inactive

smiles_record=CC(=O)N(C)C1(c2ccccc2)CCN(CCC[C@]2(c3ccc(Cl)c(Cl)c3)CCCN(C(=O)c3ccccc3)C2)CC1 category_label=Y
smiles_record=NC1=N[C@@]2(c3cc(NC(=O)c4ccc(F)cn4)ccc3F)COC[C@@H]2CS1 category_label=N
smiles_record=COc1ccc2c(Oc3ccc(NC(=O)c4c(C)n(CC(C)(C)O)n(-c5ccccc5)c4=O)nc3)ccnc2c1 category_label=N

Q. What call does the record list for CC(=NNC(=S)N1CCC1)c1ccccn1 ?
A. N

###

assay_explanation: qHTS of pediatric cancer cell lines to identify multiple opportunities for drug repurposing: Confirmatory screen for LAN-5 cells (AID 1347113); note: nearly all actives have a fitted effect of over 65% in size
assay_context: LAN-5 neuroblastoma cell viability; series mostly up to 45.9 µM
Inconclusive results are not listed. Active and inactive are the calls of the source. The call rests on the fitted dose curve; in most records, active means well fitted cell-killing curve with a large enough effect; inconclusive means small, poorly fitted or top-dose-only effect, or effect the other way; inactive means no such curve, though single readings can be large or run the other way.
Select the matching outcome among 1 = active, 0 = inactive

compound=CC1(C)CCC(CN2CCN(c3ccc(C(=O)NS(=O)(=O)c4ccc(NCC5CCOCC5)c([N+](=O)[O-])c4)c(Oc4cnc5[nH]ccc5c4)c3)CC2)=C(c2ccc(Cl)cc2)C1 category_label=1
compound=CN[C@@H](C)C(=O)N[C@H]1CN(C(=O)CC(C)C)CC[C@H]2CC[C@@H](C(=O)NC(c3ccccc3)c3ccccc3)N2C1=O category_label=0
compound=COc1ncc(-c2ccc3nccc(-c4ccnnc4)c3c2)cc1NS(=O)(=O)c1ccc(F)cc1F category_label=1

Q. What call does the record list for COc1ccc2c(Oc3ccc(NC(=O)c4c(C)n(CC(C)(C)O)n(-c5ccccc5)c4=O)cc3F)ccnc2c1 ?
A. 0

Q. What call does the record list for CC(=NNC(=S)N1CCC1)c1ccccn1 ?
A. 0

Q. What call does the record list for C=C1C(=O)[C@@]23C(CC[C@@H]1[C@H]2O)[C@@]12CO[C@]3(O)[C@@H](O)[C@@H]1C(C)(C)CC[C@@H]2O (some centres not stated) ?
A. 1

Q. What call does the record list for CO[C@H]1C(=O)[C@]2(C)[C@@H](OC)C[C@H]3OC[C@@]3(OC(C)=O)[C@H]2[C@H](OC(=O)c2ccccc2)[C@]2(O)C[C@H](OC(=O)[C@H](O)[C@@H](NC(=O)OC(C)(C)C)c3ccccc3)C(C)=C1C2(C)C ?
A. 0

###

System: MKL-2
assay_explanation: qHTS assay to identify novel small-molecules to repurpose for Merkel cell carcinoma treatment (AID 1296009); note: nearly all actives have a fitted effect of over 60% in size
assay_context: MCC and control cell lines, CellTiter-Glo viability, 72 h; series mostly up to 46 µM
Results filed as inconclusive are left out. The source made the active and inactive calls. Calls follow the shape of the dose curve; as a rule, active = well fitted inhibition curve with a large enough effect; inconclusive = small, poorly fitted or top-dose-only effect; inactive = flat fitted curve, though single readings scatter.
Select the matching outcome among Y for active, N for inactive

Q. What call does the record list for CCOC(=O)C1=C(N)Oc2ccc(Br)cc2C1C(C#N)C(=O)OCC (stereo unspecified) ?
A. N

Q. What call does the record list for CN(C)CCC(c1ccccc1)c1ccccn1 (stereo unspecified) ?
A. N

Q. What call does the record list for CC#CCn1c(N2CCC[C@@H](N)C2)nc2c1c(=O)n(Cc1nc(C)c3ccccc3n1)c(=O)n2C ?
A. N

Q. What call does the record list for CNC(=O)c1ccc2cc(C3(O)CCn4cncc43)ccc2c1 (stereo unspecified) ?
A. N

Q. What call does the record list for CC1(C)S[C@H]2[C@H](NC(=O)[C@@H](N)c3ccc(O)cc3)C(=O)N2[C@@H]1C(=O)O ?
A. Y

Q. What call does the record list for C[C@H](NC(=O)C(=O)Nc1ccccc1C(C)(C)C)C(=O)N[C@@H](CC(=O)O)C(=O)COc1c(F)c(F)cc(F)c1F ?
A. Y

Q. What call does the record list for COC(=O)C1=CO[C@@H](O)[C@@H]2C(CO)=CC[C@@H]12 ?
A. Y

Q. What call does the record list for CN1C[C@H]2c3ccccc3Oc3ccc(Cl)cc3[C@@H]2C1 ?
A. N

Q. What call does the record list for O=C(NCCN1CCOCC1)c1ccc(Cl)cc1 ?
A. N

###

Collected Potency values appear next to each entry.
assay_explanation: qHTS assay to identify inhibitors of the type 1 interferon - major histocompatibility complex class I in skeletal muscle: Counter screen cell viability and HiBit confirmation (AID 1347412); note: potency is the fitted concentration of half-maximal effect; nearly all actives have a fitted effect of over 60% in size
assay_context: iHSKM muscle cells + IFN-b, HiBiT or CellTiter-Glo, 24 h; HiBiT
Inconclusive results are not listed. Activity calls are given as the source filed them. Calls follow the shape of the dose curve; as a rule, active = well fitted inhibition curve with a large enough effect; inconclusive = small, poorly fitted or top-dose-only effect; inactive = no such curve, though single readings can be large or run the other way.

smiles_record=COc1cc(N2CCC(N3CCN(C)CC3)CC2)ccc1Nc1ncc(Cl)c(Nc2ccccc2S(=O)(=O)C(C)C)n1 endpoint_label=Potency readout_value="17.6 µM (active)"
smiles_record=COc1ccc(-c2nc(N3CCOCC3)c3sc(CN(C)c4ncc(C(=O)NO)cn4)cc3n2)cn1 endpoint_label=Potency readout_value="0.0279 µM (active)"
smiles_record=NS(=O)(=O)c1ccc(NC2=CC(=O)c3ccccc3C2=O)cc1 endpoint_label=Potency readout_value="3.52 µM (active)"

Q. Can you look up the measured Potency of O=C(O)c1ccccc1C(=O)Nc1ccc(-c2ccccc2)cc1 for me?
A. 14 µM (active)

Q. Can you look up the measured Potency of O=C(NCc1ccccc1)c1csc(Nc2ccncn2)n1 for me?
A. 9.91 µM (active)

Q. Can you look up the measured Potency of O=C1C(Cl)=C(NCCN2CCOCC2)C(=O)c2ncccc21 for me?
A. 5.57 µM (active)

Q. Can you look up the measured Potency of COc1cc(Nc2ncc(F)c(Nc3ccc4c(n3)NC(=O)C(C)(C)O4)n2)cc(OC)c1OC for me?
A. 1.25 µM (active)

Q. Can you look up the measured Potency of NS(=O)(=O)c1cccc2c1C(=O)c1cccc(O)c1C2=O for me?
A. 0.557 µM (active)

Q. Can you look up the measured Potency of CC(C)n1nc(-c2ccc3oc(N)nc3c2)c2c(N)ncnc21 for me?
A. 0.0991 µM (active)

Q. Can you look up the measured Potency of CC1(C)CCC2=C(O1)c1ccccc1C(=O)C2=O for me?
A. 22.2 µM (active)

###

assay_explanation: Quantitative High-Throughput drug screen in 47 multiple myeloma cell lines against the NCATS MIPE library collection: Karpas620_DSMZ cell viability assay (AID 1918959); note: nearly all actives have a fitted effect of over 30% in size
assay_context: Karpas620 myeloma viability, CellTiter-Glo ATP luminescence, 48 h; series mostly up to 45.8 µM
Inconclusive results are not listed. Calls of active or inactive are those of the source. Calls come from the whole dose curve; as a rule, active = well fitted cell-killing curve with a large enough effect; inconclusive = small, poorly fitted or top-dose-only effect, or effect the other way; inactive = no such curve, though single readings can be large or run the other way.
Select the matching outcome among TRUE for active, FALSE for inactive

Reference set (3 entries):
compound=COCCCCC(=NOCCN)c1ccc(C(F)(F)F)cc1 category_label=FALSE
compound=O=C(Nc1ccccc1-c1cn2c(CN3CCNCC3)csc2n1)c1cnc2ccccc2n1 category_label=FALSE
compound=CC1(C)S[C@H]2[C@H](NC(=O)[C@@H](N)c3ccc(O)cc3)C(=O)N2[C@@H]1C(=O)O category_label=TRUE

Q. What call does the record list for O=C(OCC#CCSc1nnc(-c2cccc3ccccc23)o1)c1cc2ccccc2s1 ?
A. FALSE

Q. What call does the record list for CO[C@H]1C[C@@H]2CC[C@@H](C)[C@@](O)(O2)C(=O)C(=O)N2CCCC[C@@H]2C(=O)O[C@H]([C@@H](C)C[C@@H]2CC[C@H](O)[C@H](OC)C2)CC(=O)[C@H](C)C=C(C)[C@@H](O)[C@@H](OC)C(=O)[C@H](C)C[C@H](C)C=CC=CC=C1C ?
A. TRUE
